Test system: granulation tissue in wound chamber
assay overview: in vivo wound chamber model
Design: species or system rat
measurement parameters: Rattus norvegicus; 10 μg dosage, injected into chamber daily, day 7-14 treatment; read-out: Mean Collagen content (% of Control) On Day 14
List of response vs control in vivo at 0.01 mg values.

compound | units symbol | response vs control in vivo at 0.01 mg
CCCN(CC)C(=O)c1cnc2c3c(ccc2c1)C(=O)C([N+](=O)[O-])C=N3 (stereo not drawn) | % | 58.8
CCOC(=O)C1C=Nc2c(c(OC)cc3cccnc23)C1=O (stereo not drawn) | % | 72.2
O=C(O)C1C=Nc2c(cc(Cl)c3cccnc23)C1=O (stereo not drawn) | % | 80.3
O=C(O)C1C=Nc2c(ccc3cc(O)cnc23)C1=O (stereo not drawn) | % | 81.9
O=C(O)C1C=Nc2c(c(Cl)cc3cccnc23)C1=O (stereo not drawn) | % | 91.7
O=C(OCCN1CCOCC1)C1C=Nc2c(ccc3cccnc23)C1=O (stereo not drawn) | % | 95.5
CN(Cc1ccccc1)C(=O)c1cnc2c3c(ccc2c1)C(=O)C(C#N)C=N3 (stereo not drawn) | % | 81.1
CN(Cc1ccc(F)cc1F)C(=O)c1cnc2c3c(ccc2c1)C(=O)C(C(=O)O)C=N3 (stereo not drawn) | % | 108
N#CC1C=Nc2c(ccc3cccnc23)C1=O (stereo not drawn) | % | 110
COCCOCCOC(=O)C1C=Nc2c(ccc3cccnc23)C1=O (stereo not drawn) | % | 114
O=C1c2ccc3cccnc3c2N=CC1S(=O)(=O)C(F)(F)F (stereo not drawn) | % | 90.8
Cc1cc2cc(C(=O)N(C)Cc3ccccc3)cnc2c2c1C(=O)C(C(=O)O)C=N2 (stereo not drawn) | % | 99.1
